# Protocol Text: qHTS assay to identify small molecule agonists of the hypoxia (HIF-1) signaling pathway - cell viability counter screen (AID 1224844); further: nearly all actives have a fitted effect of over 50% in size
# Condition Summary: HRE-bla ME-180 viability, CellTiter-Glo luminescence, 17 h; series mostly up to 76.8 µM
Inconclusive results are not listed. The source made the active and inactive calls. The call rests on the fitted dose curve.
Outcome codes: true (1) = active, false (0) = inactive

1. CC(=O)c1cc2c(cc1C)C(C)(C)C(C)CC2(C)C (centres undefined)	true (1)
2. C=CCCl	false (0)
3. Clc1cccc2ccccc12	false (0)
4. O=C(NC(=O)c1c(F)cccc1F)Nc1cc(Cl)c(Oc2ncc(C(F)(F)F)cc2Cl)c(Cl)c1	false (0)

These measurements were taken from PubChem BioAssay (Tox21).
